- System: highly purified tubulin (tubulin heterodimer)
- Test name: Competitive binding test, [3H]vinblastine
- Parameters: species or system bovine
- Conditions used: competitor 100 μM, [3H]vinblastine 100 nM, percent of binding to control without competitor
Quantity measured: [3H]Vinblastine binding, Mean

Solved entries (count: 3):
• CC(=O)O[C@H]1C(=O)[C@@]2(C)[C@H]([C@H](OC(=O)c3ccccc3)[C@]3(O)C[C@H](OC(=O)[C@H](O)[C@@H](NC(=O)c4ccccc4)c4ccccc4)C(C)=C1C3(C)C)[C@]1(OC(C)=O)CO[C@@H]1C[C@@H]2O [Paclitaxel, reference compound] = 92 % of control
• CN(C)CCCOc1cc(F)c(-c2c(Cl)nc(N(C)C#N)nc2NCC(F)(F)F)c(F)c1 [Example 19] = 22 % of control
• CN(C#N)c1nc(Cl)c(-c2c(F)cc(F)cc2F)c(NCC(F)(F)F)n1 [Example 1] = 30 % of control

// next entry
For the molecule CC[C@]1(O)C[C@H]2CN(CCc3c([nH]c4ccccc34)[C@@](C(=O)OC)(c3cc4c(cc3OC)N(C=O)[C@H]3[C@@](O)(C(=O)OC)[C@H](OC(C)=O)[C@]5(CC)C=CCN6CC[C@]43[C@@H]65)C2)C1 [Vincristine, reference compound] , what [3H]Vinblastine binding, Mean is on record? 5 % of control

====

- System: KB-8-5 cells
- Test name: MTS cytotoxicity test with KB-8-5 cells (moderate P-glycoprotein)
- Type: cell-based, human
- Conditions used: IC50 on KB 8.5 cells/IC50 on KB cells
Lab note - cut at 10 for Ratio 8.5/KB: 1.0 if strictly below, 0.0 if not.

Use these answered entries as a reference point.
- CC[C@]1(O)C[C@H]2CN(CCc3c([nH]c4ccccc34)[C@@](C(=O)OC)(c3cc4c(cc3OC)N(C=O)[C@H]3[C@@](O)(C(=O)OC)[C@H](OC(C)=O)[C@]5(CC)C=CCN6CC[C@]43[C@@H]65)C2)C1 [Vincristine, reference compound]: 0.0
- CNCCCOc1cc(F)c(-c2c(Cl)nc(-c3ccccn3)nc2N[C@@H](C)C(F)(F)F)c(F)c1.Cl [Example 29a]: 1.0

Consider COc1cccc2c1C(=O)c1c(O)c3c(c(O)c1C2=O)C[C@@](O)(C(=O)CO)C[C@@H]3O[C@H]1C[C@H](N)[C@H](O)[C@H](C)O1 [Doxorubicin, reference compound] . Does its Ratio 8.5/KB lie strictly below 10? 1.0

Consider O=C1c2c(O)ccc(O)c2C(=O)c2c(NCCNCCO)ccc(NCCNCCO)c21 [Mitoxantrone, reference compound] . Does its Ratio 8.5/KB lie strictly below 10? 1.0

Consider CNCCCOc1cc(F)c(-c2c(Cl)nc(-c3cnccn3)nc2N[C@@H](C)C(F)(F)F)c(F)c1.Cl [Example 24a] . Does its Ratio 8.5/KB lie strictly below 10? 1.0

Consider CNCCCOc1cc(F)c(-c2c(Cl)nc(-n3cccn3)nc2N[C@@H](C)C(F)(F)F)c(F)c1.Cl [Example 32a] . Does its Ratio 8.5/KB lie strictly below 10? 0.0
